Study system: UniProt:O60885
Test protocol: TR-FRET bromodomain binding assay, BRD4 BDI
Property label: Ki
# output: number + unit

Guide cases for Ki, answers given:
Compound	Ki
CCOC(=O)CC(=O)N[C@H]1CC[C@H](Oc2cc(=O)n(C)cc2-c2cc(C(C)(C)O)ccc2Oc2c(C)cc(F)cc2C)CC1 [Example 55]	1870 nM
Cc1cc(F)cc(C)c1Oc1ccc(C(C)(C)O)cc1-c1cn(C)c(=O)cc1O[C@H]1CC[C@H](N2C(=O)NC3(CC3)C2=O)CC1 [Example 136]	2470 nM

Now turn to the next compound.
Exercise: # return Ki for Cc1cc(F)cc(C)c1Oc1ccc(C(C)(C)O)cc1-c1cn(C)c(=O)cc1NC1CCN(S(C)(=O)=O)CC1 [Example 9] , test system: UniProt:O60885
Key: 3680 nM

---

Study system: BRD4 (BDI_K57-E168) (Homo sapiens)
Test protocol: TR-FRET bromodomain binding assay, BRD4 BDI
Parameter Ki: see the listing below.
Answer with a number only, understood to be in nM.

Guide cases for Ki, answers given:
Molecule	Experimental value
Cc1cccc(C)c1Oc1ccc(C(C)(C)O)cc1-c1cn(C)c(=O)cc1NC1CCN(C(=O)OC(C)(C)C)C1 (stereo not shown)	1270
CNC(=O)N(C)Cc1ccc(Oc2c(C)cccc2C)c(-c2cn(C)c(=O)cc2O[C@H]2CC[C@H](NC(=O)C3(C)CC3)CC2)c1	6060
Cc1cc(F)cc(C)c1Oc1ccc(C(C)(C)O)cc1-c1cn(C)c(=O)cc1O[C@H]1CC[C@H](N2C(=O)CCC2C)CC1 (relative stereo)	3840
CC(=O)N[C@H]1CC[C@H](Oc2cc(=O)n(C)cc2-c2cc(C(C)(C)O)ccc2Oc2c(C)cc(F)cc2C)CC1	1020
CCOC(=O)CN(C(=O)C1(C)CC1)[C@H]1CC[C@H](Oc2cc(=O)n(C)cc2-c2cc(C(C)(C)O)ccc2Oc2c(C)cc(F)cc2C)CC1	1320

Exercise: # return Ki for CC(=O)N[C@H]1CC[C@H](Oc2cc(=O)n(C)cc2-c2cc(C(C)(C)O)cnc2Oc2c(C)cc(C(C)(C)O)cc2C)CC1 , test system: BRD4 (BDI_K57-E168) (Homo sapiens)
Key: 1170

Exercise: # return Ki for Cc1cc(F)cc(C)c1Oc1ccc(C(C)(C)O)cc1-c1cn(C)c(=O)cc1O[C@H]1CC[C@H](NC(=O)C23CCC(CO)(CC2)CC3)CC1 (relative stereo) , test system: BRD4 (BDI_K57-E168) (Homo sapiens)
Key: 3650

---

Study system: BRD4 (BDI_K57-E168) (Homo sapiens, UniProt O60885)
Test protocol: TR-FRET bromodomain binding assay, BRD4 BDI
Property label: Ki

Guide cases for Ki, answers given:
Molecule	Experimental value
Cc1cc(F)cc(C)c1Oc1ccc(C(C)(C)O)cc1-c1cn(C)c(=O)cc1O[C@H]1CC[C@H](N2CC(C)(C)C2=O)CC1	3.3 µM
Cc1cc(F)cc(C)c1Oc1ccc(C(C)(C)O)cc1-c1cn(C)c(=O)cc1O[C@H]1CC[C@H](N2C(=O)[C@@H]3CCCN3C2=O)CC1	5.86 µM
Cc1cc(F)cc(C)c1Oc1ccc(C(C)(C)O)cc1-c1cn(C)c(=O)cc1O[C@H]1CC[C@H](NS(C)(=O)=O)CC1	5.45 µM
COCCN(C(=O)C1(C)CC1)[C@H]1CC[C@H](Oc2cc(=O)n(C)cc2-c2cc(C(C)(C)O)ccc2Oc2c(C)cc(F)cc2C)CC1	1.95 µM
CC(=O)NN[C@H]1CC[C@@H](Oc2cc(=O)n(C)cc2-c2cc(C(C)(C)O)ccc2Oc2c(C)cc(F)cc2C)CC1	10.4 µM

Exercise: # return Ki for Cc1cc(F)cc(C)c1Oc1ccc(C(C)(C)O)cc1-c1cn(C)c(=O)cc1O[C@H]1CC[C@H](N2C(=O)CCC2=O)CC1 , test system: BRD4 (BDI_K57-E168) (Homo sapiens, UniProt O60885)
Key: 3.38 µM

Exercise: # return Ki for CC(=O)N1CCC(=O)N1[C@H]1CC[C@H](Oc2cc(=O)n(C)cc2-c2cc(C(C)(C)O)ccc2Oc2c(C)cc(F)cc2C)CC1 , test system: BRD4 (BDI_K57-E168) (Homo sapiens, UniProt O60885)
Key: 4.86 µM

Exercise: # return Ki for Cc1cc(F)cc(C)c1Oc1ccc(C(C)(C)O)cc1-c1cn(C)c(=O)cc1O[C@H]1CC[C@H](N2C(=O)N[C@@H](C)C2=O)CC1 , test system: BRD4 (BDI_K57-E168) (Homo sapiens, UniProt O60885)
Key: > 13 µM

Exercise: # return Ki for CC(=O)N[C@H]1CC[C@H](Oc2cc(=O)n(C)cc2-c2cc(C(C)(C)O)ccc2Oc2c(C)cc(C(C)(C)O)cc2C)CC1 , test system: BRD4 (BDI_K57-E168) (Homo sapiens, UniProt O60885)
Key: 0.982 µM

Exercise: # return Ki for C=CCCCC(=O)N[C@H]1CC[C@H](Oc2cc(=O)n(C)cc2-c2cc(C(C)(C)O)ccc2Oc2c(C)cc(F)cc2C)CC1 , test system: BRD4 (BDI_K57-E168) (Homo sapiens, UniProt O60885)
Key: 5.79 µM

Exercise: # return Ki for CC(=O)NN[C@H]1CC[C@H](Oc2cc(=O)n(C)cc2-c2cc(C(C)(C)O)ccc2Oc2c(C)cc(F)cc2C)CC1 , test system: BRD4 (BDI_K57-E168) (Homo sapiens, UniProt O60885)
Key: 2.16 µM

Exercise: # return Ki for Cc1cc(F)cc(C)c1Oc1ccc(C(C)(C)O)cc1-c1cn(C)c(=O)cc1O[C@H]1CC[C@H](NC(=O)C(C)(C)CCO)CC1 , test system: BRD4 (BDI_K57-E168) (Homo sapiens, UniProt O60885)
Key: 4.02 µM

Exercise: # return Ki for CC(=O)NC1(C)CCC(Oc2cc(=O)n(C)cc2-c2cc(C(C)(C)O)ccc2Oc2c(C)cc(F)cc2C)CC1 (stereo not drawn) , test system: BRD4 (BDI_K57-E168) (Homo sapiens, UniProt O60885)
Key: 1.01 µM

Exercise: # return Ki for Cc1cc(F)cc(C)c1Oc1ccc(C(C)(C)O)cc1-c1cn(C)c(=O)cc1O[C@H]1CC[C@H](N2C(=O)N(C)C3(CC3)C2=O)CC1 , test system: BRD4 (BDI_K57-E168) (Homo sapiens, UniProt O60885)
Key: > 13 µM

Exercise: # return Ki for Cc1cc(F)cc(C)c1Oc1ccc(C(C)(C)O)cc1-c1cn(C)c(=O)cc1O[C@H]1CC[C@H](N2C(=O)CC(C)(C)C2=O)CC1 , test system: BRD4 (BDI_K57-E168) (Homo sapiens, UniProt O60885)
Key: 11.5 µM

Hello, the source for this data is patent US20210047304A1, in case you need it.
